# Subject Of Test: Polymerase acidic protein (Influenza A virus (A/Puerto Rico/8/1934(H1N1)))
# Method Summary: Inhibition of PA endonuclease at 10 uM
# Assay type: functional
The source made the active and inactive calls. No cut-off for these calls is given here.
Classes used: active, inactive

Molecule	Qualitative Label
COc1ccc2c(c1)CCc1ccc(cc1)Oc1cc(ccc1O)CCc1ccc-2c(O)c1	inactive
C=CCc1ccc(O)c(-c2cc(CC=C)ccc2O)c1	inactive
COc1c2ccoc2cc2oc(=O)ccc12	inactive
Oc1ccc2cc1Oc1ccc(cc1)CCc1cccc(O)c1Oc1cccc(c1)CC2	inactive
C=CCc1ccc(O)c(-c2ccc(O)c(CC=C)c2)c1	inactive
COC1=CC(=O)O[C@@H](/C=C/c2ccc3c(c2)OCO3)C1	inactive
Oc1cc2cc(c1O)Oc1ccc(cc1)CCc1cccc(O)c1Oc1cccc(c1)CC2 [MARCHANTIN A]	active
CC1(C)OC1COc1c2occc2cc2ccc(=O)oc12 (configuration not stated)	inactive
COc1cc(C)cc(C(=O)c2cc(O)cc(OC)c2CO)c1O	inactive
Oc1ccc2c(c1)CCc1ccc(O)c(c1)Oc1ccc(cc1)CCc1cccc(c1)O2	inactive
COc1cccc2c1Oc1cccc(c1)CCc1cc(OC)c(OC)c(c1)Oc1ccc(cc1)CC2	inactive
COC1=CC(=O)O[C@@H](CCc2ccccc2)C1	inactive
COc1cc2c(cc1O)-c1ccc(O)cc1CCc1cc(O)c(O)c(c1)Oc1ccc(cc1)CC2	active
COc1cc(/C=C/c2ccccc2)oc(=O)c1	inactive
COc1ccc2ccc(=O)oc2c1CC=C(C)C	inactive
COC1=CC(=O)O[C@@H](/C=C/c2ccccc2)C1	inactive
CC(C)=CCOc1c2occc2cc2ccc(=O)oc12	inactive
COC(=O)c1[nH]c(C(=O)OC)c(-c2c[nH]c3ccc(O)cc23)c1-c1c[nH]c2ccccc12	inactive
CC(C)[C@@H](C)/C=C/[C@@H](C)[C@H]1CCC2=C3C=CC4=CCCC[C@]4(C)[C@H]3CC[C@@]21C	inactive
Oc1cc2cc(c1O)Oc1ccc(cc1)CCc1ccc(O)c(O)c1Oc1cccc(c1)CC2	active
C[C@H]1OC(=O)C=C[C@@H]1O	inactive
C/C=C(\C)C(=O)CC1C2=CC(=O)[C@](C)(OC(C)=O)C(=O)C2=COC12OC(C)CCC2O (some centres not stated)	inactive

###

# Subject Of Test: Polymerase acidic protein (Influenza A virus (A/Puerto Rico/8/1934(H1N1)))
# Method Summary: Inhibition of Influenza Viral Focus Formation at 50 uM relative to control
# Type: functional, cell-based
# Setup Conditions: Canis lupus familiaris, MDCK

Molecule	inhibition / %
COC1Cc2cccc(c2)Oc2c(O)cccc2CCc2ccc(cc2)Oc2cc1cc(O)c2O (stereo not given) [MARCHANTIN E]	4.44
COc1cccc2c1Oc1cccc(c1)CCc1cc(OC)c(OC)c(c1)Oc1ccc(cc1)CC2	5.78
COc1cc2c(cc1O)-c1ccc(O)cc1CCc1cc(O)c(O)c(c1)Oc1ccc(cc1)CC2	5.11
Oc1cc2cc(c1O)Oc1ccc(cc1)CCc1cccc(O)c1Oc1cccc(c1)CC2 [MARCHANTIN A]	10.2
COc1ccc2c(c1)CCc1ccc(cc1)Oc1cc(ccc1O)CCc1ccc-2c(O)c1	5.56

###

# Subject Of Test: Polymerase acidic protein (Influenza A virus (A/Puerto Rico/8/1934(H1N1))) (UniProt P03433)
# Method Summary: Inhibition of PA endonuclease at 10 uM
# Type: functional
The source made the active and inactive calls. No cut-off for these calls is given here.
Classes used: y for active, n for inactive

Compound	Qualitative Label
COc1c2ccoc2c(OC)c2oc(=O)ccc12	n
COc1c2ccoc2c(OCC=C(C)C)c2oc(=O)ccc12	n
Oc1cccc(CCc2ccc(Oc3cc(CCc4cccc(O)c4)cc(O)c3O)cc2)c1	y
COc1c2occc2cc2ccc(=O)oc12	n
COc1ccc(/C=C/c2cc(OC)cc(=O)o2)cc1	n
COc1cccc2c(-c3ccc(O)c4c(OC)cccc34)ccc(O)c12	n
Oc1ccc2cc1Oc1ccc(cc1)CCc1cccc(c1)Oc1c(O)cccc1CC2	n
CC(C)=CCOc1c2ccoc2cc2oc(=O)ccc12	n
COC1Cc2cccc(c2)Oc2c(O)cccc2CCc2ccc(cc2)Oc2cc1cc(O)c2O (stereo unspecified) [MARCHANTIN E]	y
COc1cc(O)cc(C(=O)c2cc(C)cc(OC)c2OC)c1CO	n
COC(=O)c1[nH]c(C(=O)OC)c(-c2c[nH]c3ccc(O)cc23)c1-c1c[nH]c2ccc(O)cc12	n
